Target: Ubiquitin carboxyl-terminal hydrolase 8 (Homo sapiens)
Sequence (P40818 whole entry, the tested form may be a part): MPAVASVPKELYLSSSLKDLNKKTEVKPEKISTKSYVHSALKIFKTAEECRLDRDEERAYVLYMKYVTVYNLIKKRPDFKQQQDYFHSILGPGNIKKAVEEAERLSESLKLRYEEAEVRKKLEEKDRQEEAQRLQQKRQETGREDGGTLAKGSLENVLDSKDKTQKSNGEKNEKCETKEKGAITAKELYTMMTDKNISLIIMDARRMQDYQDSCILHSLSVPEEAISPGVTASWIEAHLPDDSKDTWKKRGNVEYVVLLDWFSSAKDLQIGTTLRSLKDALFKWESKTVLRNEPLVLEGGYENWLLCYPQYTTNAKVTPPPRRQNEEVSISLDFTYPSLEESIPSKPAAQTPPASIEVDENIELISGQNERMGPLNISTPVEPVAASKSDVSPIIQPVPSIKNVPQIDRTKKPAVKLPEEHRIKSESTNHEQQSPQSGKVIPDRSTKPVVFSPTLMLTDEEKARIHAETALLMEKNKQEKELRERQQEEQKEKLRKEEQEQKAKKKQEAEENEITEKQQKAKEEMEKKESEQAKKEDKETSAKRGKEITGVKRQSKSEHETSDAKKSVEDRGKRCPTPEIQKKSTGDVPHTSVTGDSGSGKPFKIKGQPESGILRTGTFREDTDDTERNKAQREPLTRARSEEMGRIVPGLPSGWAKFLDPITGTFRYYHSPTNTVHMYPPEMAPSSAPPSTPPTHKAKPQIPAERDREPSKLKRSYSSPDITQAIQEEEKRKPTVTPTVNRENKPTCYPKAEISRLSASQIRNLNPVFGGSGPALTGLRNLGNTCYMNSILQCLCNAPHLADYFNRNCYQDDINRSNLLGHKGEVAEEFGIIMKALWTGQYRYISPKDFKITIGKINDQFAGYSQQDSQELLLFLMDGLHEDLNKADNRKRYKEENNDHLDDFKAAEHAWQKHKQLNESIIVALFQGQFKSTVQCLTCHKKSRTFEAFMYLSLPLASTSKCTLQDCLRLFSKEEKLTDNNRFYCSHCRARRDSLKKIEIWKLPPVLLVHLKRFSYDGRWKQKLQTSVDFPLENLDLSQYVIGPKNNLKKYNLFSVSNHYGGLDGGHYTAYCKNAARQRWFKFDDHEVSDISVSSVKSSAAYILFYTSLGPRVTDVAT
Experiment: Inhibition of N-terminal His6-tagged USP8 (unknown origin) catalytic domain (734 to 1110 residues) expressed in Escherichia coli BL21 (DE3) cells assessed as deubiquitinating activity using ubiquitin-rhodamine -110 as substrate incubated for 30 mins followed by substrate addition measured after 30 mins by ubiquitin-rhodamine-110 based fluorometric assay
parameter_measured: IC50 (µM)

Sample records with IC50:
>  <chemical_structure>
Cc1n[nH]c(C)c1Oc1c(O)cc(O)c2c(=O)cc(-c3ccc(N4CCN(CCO)CC4)cc3)oc12

>  <unit_label>
µM

>  <IC50>
23.5

$$$$
>  <chemical_structure>
CCN1CCN(c2ccc(-c3cc(=O)c4c(O)cc(O)c(Oc5c(C)n[nH]c5C)c4o3)cc2)CC1

>  <unit_label>
µM

>  <IC50>
15.5

$$$$
>  <chemical_structure>
COc1c(O)cc(O)c2c(=O)cc(-c3ccc(N4CCC(O)CC4)cc3)oc12

>  <unit_label>
µM

>  <IC50>
36

$$$$
>  <chemical_structure>
COc1c(O)cc(O)c2c(=O)cc(-c3ccc(N(CCO)CCO)cc3)oc12

>  <unit_label>
µM

>  <IC50>
43.7

$$$$

1 = Cc1n[nH]c(C)c1Oc1c(O)cc(O)c2c(=O)cc(-c3ccc(N4CCCNCC4)cc3)oc12
2 = COc1c(O)cc(O)c2c(=O)cc(-c3ccc(N4CCN(CCO)CC4)cc3)oc12
3 = Cc1n[nH]c(C)c1Oc1c(O)cc(O)c2c(=O)cc(-c3ccc(N4CCN(c5ccccc5)CC4)cc3)oc12
Lookup: Sort these molecules on IC50 so the largest reading comes first. Field: ranking. Enter the labels in the order requested.
Found: 2, 1, 3

a = CC(C)Oc1c(O)cc(O)c2c(=O)cc(-c3ccc(N4CCCNCC4)cc3)oc12
b = COc1c(O)cc(O)c2c(=O)cc(-c3ccc(N4CCN(C=O)CC4)cc3)oc12
Lookup: Task for the reader: decide whether a or b has the larger IC50. Please reply using the label of the selected record.
Found: a
